- System: Drosophila melanogaster adult males (wild type Oregon-R strain)
- METHOD_NOTES: Negative geotaxis assay (height climbed, climbing speed)
- Type: in vivo
- DETAILS: day 7 of the beginning of treatment, drug in fly medium
Counter-ions that a name gives are not always drawn. Marks after values point to notes of the source that are not given here.
# Lookup of reported Climbing speed, Mean keyed by entry

(Q) State its Climbing speed, Mean on Drosophila melanogaster adult males (wild type Oregon-R strain): O=C1C[C@@H]2OCC=C3CN4CC[C@]56c7ccccc7N1[C@H]5[C@H]2[C@H]3C[C@H]46
(A) 1.53*** cm/sec

(Q) Similarly, CCC1(C)CC(=O)NC1=O (centres unmarked) [ESD, ethosuximide] ?
(A) 0.98 cm/s

(Q) Another compound to check: CC[C@@H]1C(=O)OC[C@@H]1Cc1cncn1C [PILO, pilocarpine-hydrochloride]
(A) 1.52*** cm/sec

(Q) Follow-up entry: CC[N+](CC)(CC)CC.[Cl-] [TEA, tetraethylammonium chloride]
(A) 1.67*** cm/sec

Shifting focus to the compound that follows.
(Q) Notebook: pull reported Climbing speed, Mean for Drosophila melanogaster adult males (wild type Oregon-R strain), entry [Cl-].[Li+] [LICA, lithium chloride]
(A) 1.9*** cm/sec

Source: patent US20050144654A1
